assay: self-splicing fitness, log relative to wild type (ln ratio); higher = more splicing; Tetrahymena group I intron in knt gene, E. coli kanamycin selection, DiMSum; sequences stand for … in CUCUCU…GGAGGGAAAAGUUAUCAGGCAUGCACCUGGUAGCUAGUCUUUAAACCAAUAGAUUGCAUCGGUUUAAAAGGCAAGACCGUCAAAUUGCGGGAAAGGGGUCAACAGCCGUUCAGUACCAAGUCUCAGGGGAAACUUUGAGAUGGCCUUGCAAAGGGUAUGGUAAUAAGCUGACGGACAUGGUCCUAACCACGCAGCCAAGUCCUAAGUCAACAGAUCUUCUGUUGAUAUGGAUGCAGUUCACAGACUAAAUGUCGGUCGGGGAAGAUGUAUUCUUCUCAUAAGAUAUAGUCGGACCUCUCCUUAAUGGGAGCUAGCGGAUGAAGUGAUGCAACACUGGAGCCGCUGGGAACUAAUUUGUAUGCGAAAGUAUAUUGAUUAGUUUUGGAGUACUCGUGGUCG; details: 37 °C;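 further: selection with 25 µg/mL kanamycin versus none on LB agar overnight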
Label satisfied for high-side self-splicing fitness (ln) (at or above -1) and not satisfied for low-side self-splicing fitness (ln) (below it).

          residue_codes            cat
0  GUUGAGCAAUAUUACGCAUA  not satisfied
1  GCGAAGCAAUAUUACGCGCG  not satisfied
2  AAAUAGCAAUAUUACGGAAG  not satisfied
3  UACAAGCAAUAUUACGCUUC  not satisfied
4  AUCUAGCAAUAUUACGCCCC      satisfied

----------
assay: self-splicing fitness, log relative to wild type (ln ratio); higher = more splicing; Tetrahymena group I intron in knt gene, E. coli kanamycin selection, DiMSum; sequences stand for … in CUCUCU…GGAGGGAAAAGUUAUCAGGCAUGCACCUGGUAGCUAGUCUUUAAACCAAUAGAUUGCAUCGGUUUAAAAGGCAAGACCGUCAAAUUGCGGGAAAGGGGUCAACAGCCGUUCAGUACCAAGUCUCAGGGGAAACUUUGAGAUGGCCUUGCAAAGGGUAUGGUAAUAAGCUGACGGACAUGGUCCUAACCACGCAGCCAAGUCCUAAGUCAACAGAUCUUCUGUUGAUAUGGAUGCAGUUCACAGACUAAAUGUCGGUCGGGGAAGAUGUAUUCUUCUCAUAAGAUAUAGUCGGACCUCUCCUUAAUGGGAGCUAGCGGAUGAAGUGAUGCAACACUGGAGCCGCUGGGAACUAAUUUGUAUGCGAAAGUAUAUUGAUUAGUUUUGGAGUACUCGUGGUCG; conditions: 37 °C
Measured Metric: self-splicing fitness (ln)

>>> print(df.to_string())
           residue_codes             measured_metric  meas_value
 0  GUAUAGCAAUAUUACGCGAG  self-splicing fitness (ln)       -1.47
 1  ACCGAGCAAUAUUACGUCCU  self-splicing fitness (ln)     -0.0861
 2  AGUUAGCAAUAUUACGACCA  self-splicing fitness (ln)      -0.258
 3  GACCAGCAAUAUUACGCUUU  self-splicing fitness (ln)      -0.213
 4  AGUCAGCAAUAUUACGUUGU  self-splicing fitness (ln)       -2.87
 5  UGUAAGCAAUAUUACGUACU  self-splicing fitness (ln)      -0.136
 6  CCUGAGCAAUAUUACGAUCA  self-splicing fitness (ln)       -2.42
 7  UGUCAGCAAUAUUACGGGAG  self-splicing fitness (ln)       -1.68
 8  GUGCAGCAAUAUUACGGGAC  self-splicing fitness (ln)       -2.82
 9  CGGAAGCAAUAUUACGAUUC  self-splicing fitness (ln)       -2.28
10  AGACAGCAAUAUUACGGGCG  self-splicing fitness (ln)      -0.459
11  UGACAGCAAUAUUACGUACG  self-splicing fitness (ln)      -0.016
12  CUCCAGCAAUAUUACGUAUG  self-splicing fitness (ln)        -1.8
13  UUUAAGCAAUAUUACGAAUA  self-splicing fitness (ln)      -0.334
14  AUAAAGCAAUAUUACGUAGU  self-splicing fitness (ln)      -0.946
15  UACUAGCAAUAUUACGGGAU  self-splicing fitness (ln)       -1.43
16  GAACAGCAAUAUUACGAGGG  self-splicing fitness (ln)       -1.87
17  CGGUAGCAAUAUUACGGAGU  self-splicing fitness (ln)       -3.27
18  CCGAAGCAAUAUUACGGCGC  self-splicing fitness (ln)       -2.63
19  AAAUAGCAAUAUUACGAAGG  self-splicing fitness (ln)       -1.45
20  UCGUAGCAAUAUUACGCUCU  self-splicing fitness (ln)      -0.606
21  CAUCAGCAAUAUUACGAAUG  self-splicing fitness (ln)       -2.05
22  CUCAAGCAAUAUUACGAUUC  self-splicing fitness (ln)       -2.26
23  AUCCAGCAAUAUUACGUAGC  self-splicing fitness (ln)       -1.78
24  AGGUAGCAAUAUUACGGUAG  self-splicing fitness (ln)       -2.99
25  CGAAAGCAAUAUUACGUGAC  self-splicing fitness (ln)       -2.22
26  UGAUAGCAAUAUUACGCUGC  self-splicing fitness (ln)       -2.61

Value source: the supplement of paper PMC7877785
